tested on: Human immunodeficiency virus type 1 reverse transcriptase (Human immunodeficiency virus 1), Q72547 [Y181I]; assay: Antiviral activity against HIV1 reverse transcriptase Y181I mutant
# reported ID50; entries follow

Sample answers from the record:
> print(dat)
                                   compound  reported.value
1  CCc1c(Cc2c(Cl)cccc2Cl)nc(SCc2ccc([N+](=O)[O-])cc2)[nH]c1=O         > 20 µM
2  CCc1c(C(C)c2c(F)cccc2F)nc(SCCOCc2ccc(OC)cc2)[nH]c1=O (stereo unspecified)         0.27 µM
3  CCc1c(Cc2c(Cl)cccc2Cl)nc(SC/C=C/c2ccc([N+](=O)[O-])cc2)[nH]c1=O         > 20 µM
4  CC(=O)Oc1ccc(CSc2nc(Cc3c(F)cccc3F)c(C)c(=O)[nH]2)cc1         > 20 µM
5  CC(=O)Oc1ccc(CSc2nc(Cc3c(Cl)cccc3Cl)c(C)c(=O)[nH]2)cc1         > 20 µM

Below: the item to evaluate.
Query: // returns reported ID50 for input Cc1c(Cc2c(F)cccc2F)nc(SCC#Cc2ccc([N+](=O)[O-])cc2)[nH]c1=O
Response: > 20 µM

###

tested on: Human immunodeficiency virus 1; test: Antiviral activity against HIV1 with reverse transcriptase Y181C mutation in MT4 cells after 5 days by MTT method; assay type: functional, organism-based; settings: Human immunodeficiency virus 1, MT4, 120 h
Reported values of pEC50 for individual entries
A value of pEC50 is the negative decimal logarithm of a concentration given in moles per litre.

Here are 3 molecules together with their reported answers.
> print(dat)
                                   molecule  quantity.name  reported.value
1  CCc1c(Cc2c(F)cccc2F)nc(SCc2ccc([N+](=O)[O-])cc2)[nH]c1=O          pEC50            5.67
2  COC(=O)c1ccc(CSc2nc(Cc3c(F)cccc3F)c(C)c(=O)[nH]2)cc1          pEC50            5.87
3  CCc1c(Cc2c(F)cccc2F)nc(SCCc2ccc(OC)cc2)[nH]c1=O          pEC50            5.56

# evaluate next
Query: What reported pEC50 corresponds to COc1ccc(COCCSc2nc(C(C)c3c(F)cccc3F)c(C)c(=O)[nH]2)cc1 (stereo not given) on Human immunodeficiency virus 1?
Response: 6.19

###

biological target: Human immunodeficiency virus type 1 reverse transcriptase (Human immunodeficiency virus 1) (UniProt Q72547); assay: Antiviral activity against wild type HIV1 reverse transcriptase
Quantity Name: ID50 (nM)
Give the value in nM but do not write nM after it.

Query: Reported ID50, compound COc1ccc(/C=C/CSc2nc(Cc3c(Cl)cccc3Cl)c(C)c(=O)[nH]2)cc1 : ____
Response: 7

Query: I have this compound here, CCOc1ccc(CSc2nc(Cc3c(F)cccc3F)c(C)c(=O)[nH]2)cc1 , and I need its recorded ID50.
Response: 800

Query: Record request: ID50 value, item CCc1c(C(C)c2c(F)cccc2F)nc(SCCOCc2ccc(OC)cc2)[nH]c1=O (stereo not given)
Response: 741

Query: For CCc1c(Cc2c(Cl)cccc2Cl)nc(SC/C=C/c2ccc([N+](=O)[O-])cc2)[nH]c1=O , what is its reported ID50?
Response: 2500

Query: Reported ID50, compound COc1ccc(CSc2nc(Cc3c(F)cccc3F)c(C)c(=O)[nH]2)cc1OC : ____
Response: 500
